assay: Phase I study, pharmacokinetics of XC-302 in patients; assay type: in vivo, human; settings: human, serum, oral; 25 to 50 mg BID, patients; read-out: Time of peak serum concentration after administration
Counter-ions that a name gives are not always drawn.
PROPERTY: Tmax

Measured Tmax of c1cnc2ccc(Nc3nc(NC4CC4)c4nc[nH]c4n3)cc2c1 [XC-302, Puquitinib Mesylate] : ~4 h
